- STUDY_TARGET: UniProt O14965
- Sequence (O14965 whole entry I57V): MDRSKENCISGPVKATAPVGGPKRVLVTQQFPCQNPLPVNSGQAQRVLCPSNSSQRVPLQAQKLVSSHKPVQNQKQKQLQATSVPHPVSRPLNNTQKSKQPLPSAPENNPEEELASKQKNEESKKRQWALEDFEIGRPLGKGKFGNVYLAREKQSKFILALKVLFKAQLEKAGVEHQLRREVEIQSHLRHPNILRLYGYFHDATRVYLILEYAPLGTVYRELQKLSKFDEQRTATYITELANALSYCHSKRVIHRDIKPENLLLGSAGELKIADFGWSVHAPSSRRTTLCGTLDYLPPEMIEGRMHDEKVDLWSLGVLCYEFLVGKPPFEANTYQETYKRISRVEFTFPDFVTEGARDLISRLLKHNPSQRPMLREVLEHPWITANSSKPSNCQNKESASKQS
- TEST: Aurora A Inhibition Assay
- CONDITION_LABEL: pH 9.5; 16 °C
ENDPOINT: IC50 (µM)
Answers are plain numbers, in µM.

Entry `CNc1nc(NCCc2ccccc2OC)nc(Nc2ccc3ncccc3c2)n1` — recorded IC50 = 5.1

* * *

- STUDY_TARGET: Mitogen-activated protein kinase 14 (Homo sapiens, UniProt Q16539)
- Sequence (Q16539 whole entry): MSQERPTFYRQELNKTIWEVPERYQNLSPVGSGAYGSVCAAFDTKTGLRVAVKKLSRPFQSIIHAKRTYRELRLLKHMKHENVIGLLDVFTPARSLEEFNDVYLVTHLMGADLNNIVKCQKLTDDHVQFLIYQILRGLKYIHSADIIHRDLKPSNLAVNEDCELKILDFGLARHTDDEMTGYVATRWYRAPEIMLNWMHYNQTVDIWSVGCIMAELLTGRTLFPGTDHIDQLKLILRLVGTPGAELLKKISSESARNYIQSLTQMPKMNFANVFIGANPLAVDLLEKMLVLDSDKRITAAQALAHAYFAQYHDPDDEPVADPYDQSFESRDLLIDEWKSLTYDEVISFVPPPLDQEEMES
- TEST: MAPK p38 Inhibition Assay
- CONDITION_LABEL: pH 9.5; 16 °C
ENDPOINT: EC50 (nM)
One number for each entry, in nM.

Entry `CNC(=O)[C@H](Cc1ccc2c(c1)COC(C)(C)O2)Nc1nc(NCC(C)C)nc(-n2cnc3cc(C(=O)N4CCCc5ccccc54)ccc32)n1` — recorded EC50 = 250

Ref: BindingDB's records for doi:10.1038/nchembio.211
